Measured growth by item
Tested on: KM12 colon
Experiment: NCI-60 one-dose screen, 48 h (100 = growth as untreated, 0 = no growth, -100 = all killed)
Conditions: 10 µM unless noted
This is part of a sample that, as a whole, favours compounds with a hit. Of some 83,000 tested, about 20% had one in any assay. Active and inactive are the calls of the source. How the source made its calls: active means growth percent below 10; inactive means the rest.

Examples from the recorded data:
{"columns": ["compound", "observable", "result"],
 "data": [
  ["COc1ccc(-c2nc3sccn3c2/C=C/C(=O)c2ccc3c(c2)OCO3)cc1", "growth", "54.2% (inactive)"],
  ["CCCCCCCC(=O)OCC/C=C/C1OC1C1OC(=O)/C=C\\C=C\\C(=O)N(C(C)=O)C(=O)/C=C(/C)CCC2OC2C1OC(=O)NC(C)=O (centres undefined)", "growth", "44.1% (inactive)"]
]}

Field: next compound
Inquiry: For KM12 colon, provide growth of NC(=NCCCOc1ccc(F)cc1)Nc1ccc(Cl)cc1 please.
Reply text: 76.7% (inactive)

Data credit: PubChem BioAssay (NCI)
